Entries and their melting point values follow.
OUTCOME_MEASURE: melting point

> print(dat)
                                   compound            val
1  CC(COCc1ccccc1)Nc1cc(-c2ncnc(Nc3cccc(Cl)c3)n2)ccn1 (stereo not drawn) [Compound 6]    79 to 80 °C
2  COCC(C)Nc1cc(-c2ncnc(Nc3ccc(Cl)cc3)n2)ccn1 (stereo not drawn) [Compound 4]  198 to 200 °C
3  COCC(C)Nc1cc(-c2ncnc(Nc3cccc(Cl)c3)n2)ccn1 (stereo not drawn) [Compound 1]  149 to 151 °C
4  COC[C@H](C)Nc1cc(-c2ncnc(Nc3cccc(Cl)c3)n2)ccn1 [Compound 2]  152 to 156 °C
5  Clc1cccc(Nc2ncnc(-c3ccnc(N4CCCCC4)c3)n2)c1 [Compound 7]  168 to 169 °C
6  COCC(C)Nc1cc(-c2ncnc(Nc3ccccc3Cl)n2)ccn1 (stereo not drawn) [Compound 3]  139 to 140 °C
